System: TO-N3-2 (biotin conjugate)
Assay: pull-down binding Z-score (relative to library population); higher = stronger binding
Details: RNA library: Library-2
// classify(record): look up pull-down binding Z-score in ranges lowest (below -0.6), middle (-0.6 to below 0.7), highest (0.7 or more)

GCUAUAUGAUGC [IAV_invivo_PA_3_Motif_14+IAV_invivo_PA_3_Motif_14]: lowest
AUGGCUGAUCAAGCUAU [DMSMaPseq_invitro_SARS-CoV-2_Motif_216]: lowest
AGCCACUGCGGUCGACCAUGACCUGGA [hsa-mir-619]: highest

Each sequence maps to one class by pull-down binding Z-score. Which class for AAGGGUGUAUGAGAGAUCAACCCUU [hsa-mir-5697] ?
highest

Would you mind doing `ACCCUCAAAAAGAGAUGGCAACUAGCACUCUCCAAGGGU` as well?
middle

Field entry: UUUCUCUUAUGUGAAAAAAAAGAAG [hsa-mir-525]
lowest

Cool, now AGGGCAGCUCCCAUGACUGCCUGACCGC [hsa-mir-6880]
highest

Now this one: UAAGUGUUAUAGCACUUA [hsa-mir-374a]
lowest

Here is the next sequence: UGGAGCCAGGGGGCCCAGGUCUACAGCUUCUCCCCGCUCCC [hsa-mir-6752]
highest

Same question, GCCAGAUGCUGAGCGAUGGC [hsa-mir-4730] this time
middle
